TESTED SYSTEM: HLA-A2 (Homo sapiens, UniProt P04439, D140Y/D185E/D98H/E176V/E277Q/G131W/G231S/I119V/I121R/I166T/I218V/L300P/L318F/N151K/N90K/P208A/P217A/Q86G/Q94H/R138H/R169H/T345S)
TEST SUMMARY: T2 cell binding assay (HLA class I expression on T2 cells, confocal microscopy); on T2 binding: key: +++: high binding capacity; ++: moderate binding capacity; +: low binding capacity
Type: cell-based
TEST CONDITIONS: T2 cells co-incubated with peptide (0.3, 3, 30 μg/ml) 24 hours; HLA class I surface expression
Protocol: The peptides obtained by […] method and the VH CDR1 and VL CDR2 region peptides were subject to T2 cell binding assay. T2 cells were co-incubated with each peptides in different concentrations (0.3 μg/ml, 3 μg/ml and 30 μg/ml) for 24 hours and then co-incubated with anti-human MHC class I antibodies. The expression profile of HLA class I molecules on the surface of T2 cells was analyzed by confocal microscopy. […]
QUANTITY KIND: T2 binding

chain="IALITTKIA [predicted 9-mer from VH CDR3]" endpoint_value=+
chain="LITTKIAWY [predicted 9-mer from VH CDR3]" endpoint_value=+
chain="VHSNGNTYL [predicted 9-mer from VL CDR1]" endpoint_value=+
chain="SQSTHFPYT (VL CDR3 region peptide)" endpoint_value=++
chain="NNKYYNTAL [predicted 9-mer from VH CDR2]" endpoint_value=+++

====

TESTED SYSTEM: HLA-A2 (Homo sapiens, UniProt P04439, D140Y/D185E/D98H/E176V/E277Q/G131W/G231S/I119V/I121R/I166T/I218V/L300P/L318F/N151K/N90K/P208A/P217A/Q86G/Q94H/R138H/R169H/T345S)
TEST SUMMARY: T2 cell binding assay (HLA class I expression on T2 cells, confocal microscopy)
Format: cell-based
TEST CONDITIONS: T2 cells co-incubated with peptide 24 hours
QUANTITY KIND: binding capacity in T2 cell binding assay (in words)

chain="IALITTKIA [predicted 9-mer from VH CDR3]" endpoint_value="low binding capacity"
chain="LITTKIAWY [predicted 9-mer from VH CDR3]" endpoint_value="low binding capacity"
chain="VHSNGNTYL [predicted 9-mer from VL CDR1]" endpoint_value="low binding capacity"

Origin of measurements: patent US8110654B2
